System: PRKD1
stated_conditions: concentration: 1 μM, replicates: in singlicate; n = 1;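 note: KINOMEscan kinase panel screen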
endpoint_label: %Inh (%)
Field format: number, assumed %, no unit text.

Tell me the measured %Inh of Clc1ccc(-c2cc(-c3c[nH]nc3-c3ccccn3)ccn2)cc1 [GW681251] , please.
56

Please do the same for Cl.Fc1ccccc1COc1ccc(Nc2ncnc3ccc(-c4nnc(C(F)(F)F)o4)cc23)cc1Cl [GW424170] as well.
0

Please do the same for Fc1ccc(Nc2nccc(-c3c(-c4ccc(Cl)cc4)nn4ncccc34)n2)cc1F [GW829058] as well.
0

Please do the same for CC(C)(C)c1ccc(-n2cnc3c(N)ncnc32)cc1 [SKF-97263] as well.
0

Please do the same for CC(C)N1CCC(n2cnc(-c3ccc(F)cc3)c2-c2ccnc(N)n2)CC1 [SB-223132] as well.
18

* * *

Test system: FES
stated_conditions: concentration: 1 μM, replicates: in singlicate; n = 1
Please assign 0 (no) whenever %Inh is at or above 10%, and 1 (yes) whenever it is below.

Find out if reported %Inh for `FC(F)(F)c1ccc(-c2nn3ncccc3c2-c2ccnc(Nc3cccc(C(F)(F)F)c3)n2)cc1` is less than 10%
1 (yes)

Please do the same for `Fc1cccc(COc2ccc(Nc3ncnc4cc[nH]c34)cc2Cl)c1` as well.
0 (no)

Please do the same for `CC(C)(C)c1ccc(-n2cnc3c(N)ncnc32)cc1` as well.
0 (no)

Please do the same for `CC(=O)Nc1n[nH]c2ncc(-c3ccccc3)cc12` as well.
0 (no)

Please do the same for `Oc1ccc2ncnc(Nc3ccc(OCc4ccccc4)cc3)c2c1` as well.
1 (yes)

Please do the same for `COc1cc2ncnc(Nc3ccc(OCc4ccccc4Br)c(Cl)c3)c2cc1OC.Cl` as well.
0 (no)

Please do the same for `COC(=O)c1c(-c2ccccc2)c2cc(Cl)ccc2c(=O)n1Cc1ccc(S(C)(=O)=O)cc1` as well.
1 (yes)

Please do the same for `COc1ccc(-c2oc3ncnc(N)c3c2-c2ccc(OC)cc2)cc1` as well.
1 (yes)

Please do the same for `COc1ccc(NC(=O)c2ccc(-c3cc(-c4nnc(C)o4)ccc3C)cc2)cc1` as well.
1 (yes)

* * *

System: EPHA7
stated_conditions: concentration: 1 μM, replicates: in singlicate; n = 1
Classification field: enter y for %Inh values not below 5%, n for values below it.

API: above_or_equal(metric=%Inh, cutoff=5%) for item `Nc1n[nH]c2nnc(-c3ccccc3)cc12`
y

Please do the same for `CNc1nccc(-c2c(-c3ccc(F)cc3)ncn2C2CCN(C)CC2)n1` as well.
n

Please do the same for `Cc1ccc(O)cc1Nc1cc(C(F)(F)F)nc2ccc(-c3ccncc3)cc12` as well.
y

Please do the same for `Cn1ccc2ncnc(Nc3ccc(Oc4cccc(Cl)c4)c(Cl)c3)c21` as well.
y

Please do the same for `OCCOCCn1ccc2ncnc(Nc3ccc(Oc4cccc(Cl)c4)c(Cl)c3)c21` as well.
n

Please do the same for `CC(C)N1CCC(n2cnc(-c3ccc(F)cc3)c2-c2ccnc(N)n2)CC1` as well.
n

Please do the same for `CN1CCC(n2cnc(-c3ccc(F)cc3)c2-c2ccnc(NC3CCNCC3)n2)CC1` as well.
n

* * *

Tested on: RSK3(Kin.Dom.1-N-terminal)
Construct: gene RPS6KA2
stated_conditions: concentration: 1 μM, replicates: in singlicate; n = 1
endpoint_label: %Inh (%)
Field format: number, assumed %, no unit text.

Tell me the measured %Inh of `CN1c2ccc(-c3ccc(C(=O)NCCO)cc3)cc2-c2[nH]ncc2S1(=O)=O` , please.
0

Please do the same for `Cc1cccc(-c2nc(Nc3ccc4[nH]nnc4c3)c3ccccc3n2)n1` as well.
0

Please do the same for `FC(F)(F)c1cc(Nc2nccc(-c3c(-c4ccc(Cl)cc4)nn4ncccc34)n2)ccc1Cl` as well.
0

Please do the same for `Cl.c1ccc(Cn2ncc3cc(Nc4ncnc5ccccc45)ccc32)cc1` as well.
0

Please do the same for `Cl.Cl.c1ccc(-c2cc3ccncc3cc2OC2CCNCC2)cc1` as well.
0

Please do the same for `CCc1nc(-c2cccc(N(C)S(=O)(=O)c3ccccc3)c2)c(-c2ccnc(Nc3ccc(N4CCN(C(C)=O)CC4)nc3)n2)s1` as well.
8

Please do the same for `CCn1c(-c2ccncc2)nc2cnccc21` as well.
8

Please do the same for `COc1ccc(-c2oc3ncnc(N)c3c2-c2ccc(OC)cc2)cc1` as well.
5

Please do the same for `CCC(CC)(CC)n1cnc2c(N)ncnc21` as well.
0

Please do the same for `Cl.Cn1ccc(-c2cccc(Nc3ccnc4cc(-c5nccs5)ccc34)c2)n1` as well.
2

Please do the same for `COc1cc2ncnc(Nc3ccc(OCc4ccccc4Br)c(Cl)c3)c2cc1OC.Cl` as well.
100

Please do the same for `Fc1cccc(COc2ccc(Nc3ncnc4sc(-c5ccc[nH]5)cc34)cc2Cl)c1` as well.
0

Please do the same for `CSc1ccc(NC2=C(c3ccccc3Cl)C(=O)NC2=O)cc1` as well.
1

Please do the same for `Cl.O=S(=O)(c1cccc(F)c1)c1ccc(Nc2ncnc3cc(Br)sc23)cc1Cl` as well.
0

Please do the same for `CN1CCC(n2cnc(-c3ccc(F)cc3)c2-c2ccnc(NC3CCNCC3)n2)CC1` as well.
18

Please do the same for `Clc1cccc(-c2nc(Nc3ccncc3)c3ccccc3n2)c1` as well.
0

Please do the same for `Nc1nccc2scc(-c3ccc4c(c3)CCN4C(=O)Cc3cc(F)ccc3F)c12` as well.
29

Please do the same for `N#Cc1ccc(Oc2ccc(Nc3ncnc4cc[nH]c34)cc2Cl)cc1` as well.
9

Please do the same for `Cc1ccc(C)c(NC(=O)NCCNc2ccnc(Nc3ccc(F)cc3)n2)c1` as well.
0

* * *

For each of the compounds below, state its %Inh.
Tested on: NDR2
stated_conditions: concentration: 1 μM, replicates: in singlicate; n = 1
Field format: number, assumed %, no unit text.

Tell me the measured %Inh of COc1cc2c(Nc3cccc(NC(=O)c4ccccc4)c3)ncnc2cc1OCCCN1CCOCC1 [GSK223810] , please.
0

Please do the same for Oc1ccc2ncnc(Nc3ccc(OCc4ccccc4)cc3)c2c1 [GI262866] as well.
0

Please do the same for FC(F)(F)c1cc(Nc2nccc(-c3c(-c4ccc(Cl)cc4)nn4ncccc34)n2)ccc1Cl [GW829351] as well.
0

Please do the same for Nc1nc(-c2ccc3c(N)n[nH]c3c2)cc(N2CCCCC2)n1 [GSK2228768] as well.
0

Please do the same for CCn1c(-c2ccncc2)nc2cnccc21 [SB-735216] as well.
0

Please do the same for Fc1cccc(COc2ccc(Nc3ncnc4sc(-c5ccc[nH]5)cc34)cc2Cl)c1 [GW707818] as well.
17

Please do the same for CSc1nn2c(=O)cc(N3CCOCC3)nc2n1Cc1cccc(Cl)c1Cl [GSK2347225] as well.
0

Please do the same for Cl.c1ccc(Cn2ccc3cc(Nc4ncnc5ccccc45)ccc32)cc1 [GW275568] as well.
1

Please do the same for COc1ccc(-c2oc3ncnc(N)c3c2-c2ccc(OC)cc2)cc1 [SB-589132] as well.
37

* * *

System: PFTK1
Construct: gene CDK14
stated_conditions: concentration: 1 μM, replicates: in singlicate; n = 1
Please assign F whenever %Inh is at or above 20%, and T whenever it is below.

Find out if reported %Inh for `C[C@H]1CC[C@@H](C(=O)Nc2ccccc2)CN1c1cc(-c2ccc3c(N)n[nH]c3c2)nc(N)n1` is less than 20%
T

Please do the same for `CC(C)(C)c1ccc(-n2cnc3c(N)ncnc32)cc1` as well.
F

Please do the same for `FC(F)(F)c1ccc(-c2nn3ncccc3c2-c2ccnc(Nc3cccc(C(F)(F)F)c3)n2)cc1` as well.
F

Please do the same for `Fc1cccc(COc2ccc(Nc3ncnc4cc[nH]c34)cc2Cl)c1` as well.
T

Please do the same for `O=c1cc(N2CCOCC2)nc2n(Cc3cccc(Cl)c3)ccn12` as well.
T

Please do the same for `O=C(NCCCN1CCCC1=O)c1cnc(NCc2cc(Cl)ccc2Cl)nc1NC1CCNCC1` as well.
T

Please do the same for `N#Cc1ccc(Oc2ccc(Nc3ncnc4cc[nH]c34)cc2Cl)cc1` as well.
T

Please do the same for `COc1ccc(NC(=O)Nc2ccc(C)c(-c3ccc(C(=O)Nc4ccncc4)cc3)c2)cc1` as well.
F

Please do the same for `Cn1cc(-c2ccc3c(c2)CCN3C(=O)Cc2cccc(C(F)(F)F)c2)c2c(N)ncnc21` as well.
T

* * *

Test system: TSSK3
stated_conditions: concentration: 1 μM, replicates: in singlicate; n = 1
For each of the molecules below, state its %Inh.
Field format: number, assumed %, no unit text.

Tell me the measured %Inh of `CN1c2ccc(-c3ccc(C(=O)NCCO)cc3)cc2-c2[nH]ncc2S1(=O)=O` , please.
0

Please do the same for `COC(=O)c1cccc(NC(=O)NCCNc2ccnc(Nc3ccc(F)cc3)n2)c1` as well.
23

Please do the same for `CSc1nn2c(=O)cc(N3CCOCC3)nc2n1Cc1cccc(Cl)c1Cl` as well.
30

Please do the same for `Cc1ccc(NC(=O)c2cccc(C#N)c2)cc1-c1ccc(C(=O)Nc2ccncc2)cc1` as well.
0

Please do the same for `OCCOCCn1ccc2ncnc(Nc3ccc(Oc4cccc(Cl)c4)c(Cl)c3)c21` as well.
0

Please do the same for `Cn1ccc2ncnc(Oc3ccc(NC(=O)Nc4cccnc4)c(Cl)c3)c21` as well.
2

Please do the same for `Nc1nccc2scc(-c3ccc4c(c3)CCN4C(=O)Cc3cc(F)ccc3F)c12` as well.
15

Please do the same for `COc1ccc(NC(=O)Nc2ccc(C)c(-c3ccc(C(=O)Nc4ccncc4)cc3)c2)cc1` as well.
0

Please do the same for `COc1ccc(NC(=O)c2ccc(-c3cc(-c4nnc(C)o4)ccc3C)cc2)cc1` as well.
44

Please do the same for `Fc1cccc(COc2ccc(Nc3ncnc4sc(-c5ccc[nH]5)cc34)cc2Cl)c1` as well.
7

Please do the same for COc1ccc(Nc2nccc(N3CCC(NC(=O)c4cccc(NC(C)=O)c4)C3)n2)cc1 (centres unmarked) as well.
11

Please do the same for CCCc1ccc(S(=O)(=O)NC2CCN(c3ccnc(Nc4ccc(OC)cc4)n3)C2)cc1 (centres unmarked) as well.
5

Please do the same for COc1ccc(Nc2nccc(N3CCC(NC(=O)Nc4ccc5c(c4)OCO5)C3)n2)cc1 (centres unmarked) as well.
31

Please do the same for `FC(F)(F)c1cc(Nc2nccc(-c3c(-c4ccc(Cl)cc4)nn4ncccc34)n2)ccc1Cl` as well.
0

Please do the same for `O=C(Nc1n[nH]c2nc(-c3ccco3)c(Br)cc12)c1ccc(CN2CCCC2)cc1.O=C(O)[C@H](O)[C@@H](O)C(=O)O` as well.
0

Please do the same for `COc1cc2c(Nc3cccc(NC(=O)c4ccccc4)c3)ncnc2cc1OCCCN1CCOCC1` as well.
17

Please do the same for `N#Cc1ccc(Oc2ccc(Nc3ncnc4cc[nH]c34)cc2Cl)cc1` as well.
0
